molecular target: PDGF-Ra (Homo sapiens); construct: host or cells: G-292 human osteosarcoma cells; assay: Inhibitory activity against PDGF-Ra phosphorylation by PDGF-AA stimulation using G292; format: cell-based; conditions: Pharmacological Test Example 1; > means inhibition at indicated concentration not more than 50%, < and << not less than 50%; read-out: PDGF (E) IC50
Sequence (P16234 24-1089): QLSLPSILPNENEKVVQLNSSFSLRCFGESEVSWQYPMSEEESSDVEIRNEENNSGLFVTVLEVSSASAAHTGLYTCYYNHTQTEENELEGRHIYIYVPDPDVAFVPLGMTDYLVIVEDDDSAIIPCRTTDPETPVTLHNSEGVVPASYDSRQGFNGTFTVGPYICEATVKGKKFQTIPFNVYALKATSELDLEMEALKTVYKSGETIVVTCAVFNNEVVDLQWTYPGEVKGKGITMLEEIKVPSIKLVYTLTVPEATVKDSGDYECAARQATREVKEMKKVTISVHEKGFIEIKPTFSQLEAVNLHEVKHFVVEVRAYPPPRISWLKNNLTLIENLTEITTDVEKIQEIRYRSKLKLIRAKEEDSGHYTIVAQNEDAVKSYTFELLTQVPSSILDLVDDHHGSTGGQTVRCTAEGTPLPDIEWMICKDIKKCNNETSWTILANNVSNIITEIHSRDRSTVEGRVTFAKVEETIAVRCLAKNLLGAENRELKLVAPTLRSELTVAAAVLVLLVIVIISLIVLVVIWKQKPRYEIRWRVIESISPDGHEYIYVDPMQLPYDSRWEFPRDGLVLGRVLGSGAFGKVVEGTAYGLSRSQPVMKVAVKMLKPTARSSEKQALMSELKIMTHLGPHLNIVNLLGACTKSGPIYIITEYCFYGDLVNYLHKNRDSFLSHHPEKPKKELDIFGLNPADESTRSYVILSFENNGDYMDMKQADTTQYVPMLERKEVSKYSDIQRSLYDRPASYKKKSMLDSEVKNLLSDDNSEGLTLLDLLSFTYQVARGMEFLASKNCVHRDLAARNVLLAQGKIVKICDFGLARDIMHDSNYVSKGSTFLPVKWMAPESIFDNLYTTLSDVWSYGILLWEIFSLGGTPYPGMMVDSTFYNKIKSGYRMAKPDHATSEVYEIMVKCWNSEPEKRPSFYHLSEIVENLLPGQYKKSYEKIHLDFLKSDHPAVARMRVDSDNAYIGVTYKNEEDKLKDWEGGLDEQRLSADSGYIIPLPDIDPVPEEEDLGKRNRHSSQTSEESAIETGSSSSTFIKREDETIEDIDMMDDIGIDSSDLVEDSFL
Entry class follows IC50: b0: < 20 nM; b1: ≥ 20 nM and < 30 nM; b2: ≥ 30 nM

See these solved cases before continuing.
compound	assayed system	group label
CCCC(OC(=O)Nc1ccc(Oc2ccnc3cc(OC)c(OC)cc23)cc1)c1ccccc1 (centres unmarked)	PDGF-Ra (Homo sapiens)	b2
COc1cc2nccc(Oc3ccc(NC(=O)OC(C)c4cccc(F)c4)cc3)c2cc1OC (centres unmarked)	PDGF-Ra (Homo sapiens)	b0
CCOc1ccccc1C(C)OC(=O)Nc1ccc(Oc2ncnc3cc(OC)c(OC)cc23)cc1Cl (centres unmarked)	PDGF-Ra (Homo sapiens)	b2

QUERY: Category of `COc1cc2ncnc(Oc3ccc(NC(=O)OCCCOc4ccccc4F)cc3)c2cc1OC` , please.
RESULT: b0

QUERY: For the record `COc1cccc(OC(=O)Nc2ccc(Oc3ccnc4cc(OC)c(OC)cc34)c(C)c2C)c1` , report the class its IC50 corresponds to.
RESULT: b1

QUERY: Which band does `COc1cc2nccc(Oc3ccc(NC(=O)OC4CCCCC4)cc3)c2cc1OC` fall in?
RESULT: b0

---

target: PDGF-Ra (Homo sapiens); construct: host or cells: G-292 human osteosarcoma cells; assay: Inhibitory activity against PDGF-Ra phosphorylation by PDGF-AA stimulation using G292; type: cell-based; details: Pharmacological Test Example 1; > means inhibition at indicated concentration not more than 50%, < and << not less than 50%; read-out: PDGF (E) IC50
quantity kind: IC50 (nM)
Report only the number, with the unit nM understood.

QUERY: Fill in the blank: the reported IC50 of COc1cccc(C(C)OC(=O)Nc2ccc(Oc3ncnc4cc(OC)c(OC)cc34)cc2Cl)c1 (centres unmarked) [Example 56] is ____.
RESULT: 11

---

molecular target: c-kit (Homo sapiens); construct: MO7e (human megakaryocytic leukemia cell line) which had been arrested for 20 hr; endogenous in cells; host or cells: MO7e human megakaryocytic leukemia cell line; experiment: Inhibitory activity against c-kit autophosphorylation (MO7e cells, h-SCF); assay type: cell-based; conditions: MO7e cells, h-SCF stimulation; read-out: c-kit IC50
Sequence (P10721 26-976): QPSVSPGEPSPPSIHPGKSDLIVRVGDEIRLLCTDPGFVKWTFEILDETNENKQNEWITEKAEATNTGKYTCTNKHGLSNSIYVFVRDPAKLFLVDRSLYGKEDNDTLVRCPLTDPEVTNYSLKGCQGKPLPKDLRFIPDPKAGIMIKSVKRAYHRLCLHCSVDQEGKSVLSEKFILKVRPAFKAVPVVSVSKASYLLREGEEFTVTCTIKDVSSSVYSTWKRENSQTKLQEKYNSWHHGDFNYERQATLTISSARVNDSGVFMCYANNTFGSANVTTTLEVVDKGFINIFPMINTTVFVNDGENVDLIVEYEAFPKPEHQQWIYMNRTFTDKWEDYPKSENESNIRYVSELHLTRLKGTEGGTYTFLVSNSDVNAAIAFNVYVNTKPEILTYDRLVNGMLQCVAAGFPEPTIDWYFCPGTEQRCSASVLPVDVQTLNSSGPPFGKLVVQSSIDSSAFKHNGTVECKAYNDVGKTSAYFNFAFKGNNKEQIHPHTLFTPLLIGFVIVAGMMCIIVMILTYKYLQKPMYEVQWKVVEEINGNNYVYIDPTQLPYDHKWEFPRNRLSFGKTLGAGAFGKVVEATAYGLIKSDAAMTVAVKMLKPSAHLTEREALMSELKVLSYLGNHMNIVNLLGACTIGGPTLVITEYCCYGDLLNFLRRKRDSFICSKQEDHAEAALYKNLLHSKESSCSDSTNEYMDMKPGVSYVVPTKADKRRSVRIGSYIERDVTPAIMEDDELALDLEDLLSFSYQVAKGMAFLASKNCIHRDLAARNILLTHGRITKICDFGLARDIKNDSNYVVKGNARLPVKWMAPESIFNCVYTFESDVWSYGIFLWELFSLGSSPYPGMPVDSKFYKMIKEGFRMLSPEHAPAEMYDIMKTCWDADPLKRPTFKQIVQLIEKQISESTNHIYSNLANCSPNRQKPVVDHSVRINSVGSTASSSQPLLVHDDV
quantity kind: IC50

compound	measurement
COc1cc2nccc(Oc3ccc(NC(=S)NC(=O)c4ccccc4C)c([N+](=O)[O-])c3)c2cc1OC	430 nM
COc1cc2nccc(Oc3ccc(NC(=S)NC(=O)C4CCCCC4)c(F)c3)c2cc1OC	279 nM
COc1cc2nccc(Oc3ccc(NCCOc4ccc(F)cc4)cc3)c2cc1OC	126 nM
CCCCC(C)C(=O)NC(=S)Nc1ccc(Oc2ccnc3cc(OC)c(OC)cc23)cc1 (centres unmarked)	289 nM
COc1ccc(C(=O)NC(=S)Nc2ccc(Oc3ccnc4cc(OC)c(OC)cc34)cc2F)c(OC)c1	961 nM

QUERY: What measured IC50 goes with `COc1cc2nccc(Oc3ccc(NCCOc4ccccc4C)cc3C)c2cc1OC` ?
RESULT: 242 nM

QUERY: Reported IC50 for `COc1cc2nccc(Oc3ccc(NC(=S)NC(=O)c4ccccc4)c(C)c3)c2cc1OC` : what is it?
RESULT: 552 nM

QUERY: Query (compound): `COc1cc2nccc(Oc3ccc(NC(=S)NC(=O)c4ccc(C)cc4C)cc3)c2cc1OC` ; field requested: IC50
RESULT: 628 nM
